target: CYP3A4 (Homo sapiens, UniProt P08684); assay: Supersome CYP3A4 kinetic incubations; type: in vitro ADME; parameters: purchased Corning (Amsterdam, The Netherlands); host or cells: baculovirus-transfected insect cells; details: human, recombinant CYP3A4 Supersomes, pH 7.4, Km(app), Pathway 1 (bioactivation of CPF to CPO); Supersome CYP3A4
Sequence (P08684 2-503 limits assumed): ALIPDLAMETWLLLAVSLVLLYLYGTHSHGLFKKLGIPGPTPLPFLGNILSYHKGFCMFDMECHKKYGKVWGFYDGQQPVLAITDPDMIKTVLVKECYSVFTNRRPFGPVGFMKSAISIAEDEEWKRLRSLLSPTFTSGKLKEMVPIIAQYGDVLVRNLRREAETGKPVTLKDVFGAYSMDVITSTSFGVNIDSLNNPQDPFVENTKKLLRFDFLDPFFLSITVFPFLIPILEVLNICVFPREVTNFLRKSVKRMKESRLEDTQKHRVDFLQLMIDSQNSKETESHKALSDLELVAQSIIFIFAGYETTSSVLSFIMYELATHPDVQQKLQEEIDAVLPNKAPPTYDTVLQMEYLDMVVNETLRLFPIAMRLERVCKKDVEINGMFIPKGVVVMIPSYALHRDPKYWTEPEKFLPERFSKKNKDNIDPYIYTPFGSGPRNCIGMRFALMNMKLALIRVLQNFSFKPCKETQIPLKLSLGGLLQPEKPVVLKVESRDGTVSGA
Value type: Km (µM)
Please state the figure in µM; there is no need to write the unit.

The recorded Km for entry `CCOP(=S)(OCC)Oc1nc(Cl)c(Cl)cc1Cl` equals 29.8

---

Molecular target: CYP3A4 (Homo sapiens, UniProt P08684)
Assay: Supersome CYP3A4 kinetic incubations
Assay type: in vitro ADME
Set-up: purchased Corning (Amsterdam, The Netherlands); host or cells: baculovirus-transfected insect cells
Conditions: human, recombinant CYP3A4 Supersomes, pH 7.4, Km(app), Pathway 2 (detoxification of CPF to TCPy); Supersome CYP3A4
Method: […] To normalize for differences in intrinsic CYP activity between Supersome™ and pooled HLMs and enable scaling of the activities to the in vivo situation, CYP-specific ISEF values need to be established. […] The samples obtained were analyzed by UPLC-PDA for acetaminophen, 4-hydroxymephenytoin, and 6β-hydroxytestosterone formation catalyzed by 1A2, 2C19 and 3A4, or LC–MS/MS for (±)-hydroxybupropion formation catalyzed by 2B6. […]
Value type: Km (µM)
Please state the figure in µM; there is no need to write the unit.

The recorded Km for entry CCOP(=S)(OCC)Oc1nc(Cl)c(Cl)cc1Cl [CPF, Chlorpyrifos] equals 18.1
